The reported measurements were obtained from patent US8466145B2.

molecular target: DPP-IV (Homo sapiens); construct: from tissue; host or cells: human plasma (per the earlier reading of the assay); experiment: DPP-IV inhibition, compounds screened by using human plasma; assay type: biochemical; conditions: screened by using human plasma (starred examples); 300 nM compound concentration
Sequence (P27487 39-766 limits assumed): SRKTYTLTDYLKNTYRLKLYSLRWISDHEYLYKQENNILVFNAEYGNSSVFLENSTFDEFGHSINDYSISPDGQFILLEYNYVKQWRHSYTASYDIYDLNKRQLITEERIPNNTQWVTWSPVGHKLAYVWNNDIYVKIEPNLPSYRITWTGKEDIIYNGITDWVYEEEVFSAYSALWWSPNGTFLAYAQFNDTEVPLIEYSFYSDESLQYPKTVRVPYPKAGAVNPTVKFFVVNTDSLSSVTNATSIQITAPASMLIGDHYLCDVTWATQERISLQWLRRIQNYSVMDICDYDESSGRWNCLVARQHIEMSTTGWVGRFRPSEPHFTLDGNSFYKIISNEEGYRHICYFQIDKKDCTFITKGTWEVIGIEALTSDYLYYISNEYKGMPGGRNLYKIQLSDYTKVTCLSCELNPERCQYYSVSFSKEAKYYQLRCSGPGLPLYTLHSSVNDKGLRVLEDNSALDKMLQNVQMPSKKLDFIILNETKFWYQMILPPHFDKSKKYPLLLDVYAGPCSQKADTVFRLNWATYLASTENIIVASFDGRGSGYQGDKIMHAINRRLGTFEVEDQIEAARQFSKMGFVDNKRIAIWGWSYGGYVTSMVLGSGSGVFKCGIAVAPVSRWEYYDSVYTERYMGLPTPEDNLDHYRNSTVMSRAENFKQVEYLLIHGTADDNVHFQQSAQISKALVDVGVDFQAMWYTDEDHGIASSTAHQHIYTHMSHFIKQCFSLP
inhibition at 0.3 µM listing for selected molecules.
Write the answer as a number in %, unit excluded.

Observe how each entry below is paired with its result.
MOLECULE	inhibition at 0.3 µM [%]
CC1(C)[C@H](CS(=O)(=O)c2ccc(S(C)(=O)=O)cc2)CC[C@]1(C)NCC(=O)N1C[C@H](F)C[C@H]1C#N [Example 47]	13.5
CC1(C)[C@@H](Cn2cncn2)CC[C@@]1(C)NCC(=O)N1C[C@H](F)C[C@H]1C#N [Example 2]	10.5

With those in mind, consider the next molecule.
Q: Fill in reported inhibition at 0.3 µM for this entry: CC1(C)[C@@H](NCC(=O)N2CCC[C@H]2C#N)CC[C@@]1(C)c1nc(-c2ccc(F)cc2)no1 [Example 66, methanesulfonate]
Ans: 23.2

---

target: human recombinant Dipeptidyl peptidase IV enzyme (hrDPP IV) (Homo sapiens, UniProt P27487); construct: purchased R&D systems; experiment: DPP IV assay, cleavage of H-Gly-Pro-AMC by human recombinant DPP-IV enzyme; type: biochemical; conditions: 300 nM compound concentration
Sequence (P27487 whole entry): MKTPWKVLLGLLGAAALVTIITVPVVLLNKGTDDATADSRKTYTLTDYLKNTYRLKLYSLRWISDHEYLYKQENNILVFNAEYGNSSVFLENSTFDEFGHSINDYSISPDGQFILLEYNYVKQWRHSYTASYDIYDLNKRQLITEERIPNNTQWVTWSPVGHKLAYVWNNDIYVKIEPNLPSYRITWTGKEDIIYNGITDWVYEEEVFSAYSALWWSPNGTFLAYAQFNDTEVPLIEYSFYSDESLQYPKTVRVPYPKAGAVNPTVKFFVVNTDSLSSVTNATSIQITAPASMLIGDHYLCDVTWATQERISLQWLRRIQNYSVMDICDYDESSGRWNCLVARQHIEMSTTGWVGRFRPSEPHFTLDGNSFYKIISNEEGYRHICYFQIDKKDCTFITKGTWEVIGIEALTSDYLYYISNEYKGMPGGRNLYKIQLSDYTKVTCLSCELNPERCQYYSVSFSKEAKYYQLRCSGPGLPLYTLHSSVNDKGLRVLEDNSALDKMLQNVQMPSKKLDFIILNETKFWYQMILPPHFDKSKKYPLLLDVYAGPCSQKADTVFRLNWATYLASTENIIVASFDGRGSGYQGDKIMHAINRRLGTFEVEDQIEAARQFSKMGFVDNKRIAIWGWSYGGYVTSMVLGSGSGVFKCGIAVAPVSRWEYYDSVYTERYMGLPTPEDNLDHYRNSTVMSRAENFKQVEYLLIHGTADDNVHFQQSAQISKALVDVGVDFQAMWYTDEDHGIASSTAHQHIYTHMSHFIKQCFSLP
inhibition at 0.3 µM listing for selected compounds.
Write the answer as a number in %, unit excluded.

Observe how each entry below is paired with its result.
SMILES_STRUCTURE	UOM	TEST_RESULT
CC1(C)[C@@H](CNc2ccc(C(F)(F)F)cn2)CC[C@@]1(C)NCC(=O)N1C[C@@H](F)C[C@H]1C#N	%	47.4
CN1C[C@]2(C)CC[C@](NCC(=O)N3C[C@@H](F)C[C@H]3C#N)(C1)C2(C)C	%	4.25
CN1C[C@]2(C)CC[C@](NCC(=O)N3CCC[C@H]3C#N)(C1)C2(C)C	%	23.3

With those in mind, consider the next compound.
Q: Fill in reported inhibition at 0.3 µM for this entry: `CC1(C)[C@H](Cc2noc(-c3ccc(F)cc3)n2)CC[C@]1(C)NCC(=O)N1C[C@@H](F)C[C@H]1C#N`
Ans: 79.8

---

Structures can show the parent of a compound that is named as a salt.
MEASURED_ATTRIBUTE: melting point

COMPOUND	melting point
CC1(C)[C@H](Cc2noc(CO)n2)CC[C@]1(C)NCC(=O)N1C[C@@H](F)C[C@H]1C#N	147 to 149 °C
CC1(C)[C@@H](NCC(=O)N2C[C@@H](F)C[C@H]2C#N)CC[C@@]1(C)c1nc(-c2ccncc2)no1	149 to 153 °C
CC1(C)[C@@H](CNC(=O)C2CCC(F)(F)CC2)CC[C@@]1(C)NCC(=O)N1C[C@@H](F)C[C@H]1C#N	193 to 195 °C
Cc1nc(C[C@H]2CC[C@@](C)(NCC(=O)N3C[C@@H](F)C[C@H]3C#N)C2(C)C)no1	121 to 123 °C
CC1(C)[C@@H](Cn2nccn2)CC[C@@]1(C)NCC(=O)N1C[C@@H](F)C[C@H]1C#N	84 to 87 °C
CC1(C)[C@H](CN2CCCC2)CC[C@]1(C)NCC(=O)N1C[C@@H](F)C[C@H]1C#N	123 to 126 °C
CC1(C)[C@H](CN2CCCS2(=O)=O)CC[C@]1(C)NCC(=O)N1C[C@@H](F)C[C@H]1C#N	171 to 174 °C
CC1(C)[C@@H](CN2CCCC2)CC[C@@]1(C)NCC(=O)N1C[C@@H](F)C[C@H]1C#N	108 to 112 °C
CC1(C)[C@@H](CN2CCCCC2)CC[C@@]1(C)NCC(=O)N1C[C@@H](F)C[C@H]1C#N	100 to 103 °C
CC1(C)[C@@H](CNC(=O)c2ccccc2F)CC[C@@]1(C)NCC(=O)N1C[C@@H](F)C[C@H]1C#N	123 to 127 °C

Q: Fill in reported melting point for this entry: CC1(C)[C@@H](Cn2cnnn2)CC[C@@]1(C)NCC(=O)N1C[C@@H](F)C[C@H]1C#N (as salt: methanesulfonate)
Ans: 210 to 214 °C

Q: Fill in reported melting point for this entry: `Cc1noc([C@]2(C)CC[C@H](NCC(=O)N3C[C@@H](F)C[C@H]3C#N)C2(C)C)n1`
Ans: 137 to 141 °C

Q: Fill in reported melting point for this entry: `CC1(C)[C@H](Cc2noc(-c3ccc(F)cc3)n2)CC[C@]1(C)NCC(=O)N1C[C@@H](F)C[C@H]1C#N`
Ans: 158 to 216 °C

Q: Fill in reported melting point for this entry: `CC1(C)[C@H](NCC(=O)N2C[C@@H](F)C[C@H]2C#N)CC[C@]1(C)c1nc(-c2cccnc2)no1`
Ans: 70 to 75 °C

Q: Fill in reported melting point for this entry: `CC1(C)[C@H](CNS(C)(=O)=O)CC[C@]1(C)NCC(=O)N1C[C@@H](F)C[C@H]1C#N`
Ans: 154 to 157 °C

Q: Fill in reported melting point for this entry: `CN1C[C@]2(C)CC[C@](NCC(=O)N3C[C@@H](F)C[C@H]3C#N)(C1)C2(C)C`
Ans: 122 to 126 °C

Q: Fill in reported melting point for this entry: `CC1(C)[C@@H](CS(=O)(=O)c2ccc(S(C)(=O)=O)cc2)CC[C@@]1(C)NCC(=O)N1CCC[C@H]1C#N`
Ans: 162 to 166 °C

Q: Fill in reported melting point for this entry: `CC1(C)[C@H](NCC(=O)N2C[C@@H](F)C[C@H]2C#N)CC[C@]1(C)c1nc(-c2ccncc2)no1`
Ans: 167 to 171 °C

Q: Fill in reported melting point for this entry: `Cc1noc([C@@]2(C)CC[C@@H](NCC(=O)N3C[C@@H](F)C[C@H]3C#N)C2(C)C)n1`
Ans: 144 to 147 °C

Q: Fill in reported melting point for this entry: `CC1(C)[C@@H](Cn2cc(CO)nn2)CC[C@@]1(C)NCC(=O)N1C[C@@H](F)C[C@H]1C#N`
Ans: 240 to 279 °C

Q: Fill in reported melting point for this entry: `CC1(C)[C@H](Cn2cncn2)CC[C@]1(C)NCC(=O)N1C[C@@H](F)C[C@H]1C#N`
Ans: 132 to 135 °C

Q: Fill in reported melting point for this entry: `CC1(C)[C@H](CNS(=O)(=O)c2ccc(F)cc2)CC[C@]1(C)NCC(=O)N1C[C@@H](F)C[C@H]1C#N`
Ans: 75 to 78 °C

Q: Fill in reported melting point for this entry: `CC(C)c1noc([C@H]2CC[C@@](C)(NCC(=O)N3C[C@@H](F)C[C@H]3C#N)C2(C)C)n1`
Ans: 91 to 94 °C

Q: Fill in reported melting point for this entry: `Cc1nc(C[C@@H]2CC[C@](C)(NCC(=O)N3C[C@@H](F)C[C@H]3C#N)C2(C)C)no1`
Ans: 131 to 133 °C

---

pIC50 listing for selected molecules.
target: human recombinant Dipeptidyl peptidase IV enzyme (hrDPP IV) (Homo sapiens); assay: DPP IV assay, cleavage of H-Gly-Pro-AMC by human recombinant DPP-IV enzyme
Convention used: pIC50 is expressed as -log10 of the molar concentration.

SMILES_STRUCTURE	SYSTEM_TESTED	pIC50
CC1(C)[C@H](Cn2cncn2)CC[C@]1(C)NCC(=O)N1C[C@@H](F)C[C@H]1C#N	human recombinant Dipeptidyl peptidase IV enzyme (hrDPP IV) (Homo sapiens)	7.96
CC1(C)[C@H](Cn2ccnn2)CC[C@]1(C)NCC(=O)N1C[C@@H](F)C[C@H]1C#N	human recombinant Dipeptidyl peptidase IV enzyme (hrDPP IV) (Homo sapiens)	7.56
CC1(C)[C@@H](CN2CCCS2(=O)=O)CC[C@@]1(C)NCC(=O)N1C[C@@H](F)C[C@H]1C#N	human recombinant Dipeptidyl peptidase IV enzyme (hrDPP IV) (Homo sapiens)	6.74
Cc1nc(C[C@@H]2CC[C@](C)(NCC(=O)N3C[C@@H](F)C[C@H]3C#N)C2(C)C)no1	human recombinant Dipeptidyl peptidase IV enzyme (hrDPP IV) (Homo sapiens)	8.36
CC1(C)[C@H](CN2CCCC2)CC[C@]1(C)NCC(=O)N1C[C@@H](F)C[C@H]1C#N	human recombinant Dipeptidyl peptidase IV enzyme (hrDPP IV) (Homo sapiens)	7.65

Q: Fill in reported pIC50 for this entry: `CC1(C)[C@H](CN2CCCCS2(=O)=O)CC[C@]1(C)NCC(=O)N1C[C@@H](F)C[C@H]1C#N`
Ans: 8.14

Q: Fill in reported pIC50 for this entry: `CC1(C)[C@@H](CNc2ccc(C#N)cn2)CC[C@@]1(C)NCC(=O)N1C[C@@H](F)C[C@H]1C#N`
Ans: 6.87

---

Biological target: human recombinant Dipeptidyl peptidase IV enzyme (hrDPP IV) (Homo sapiens, UniProt P27487)
Assay: DPP IV assay, cleavage of H-Gly-Pro-AMC by human recombinant DPP-IV enzyme
Procedure: DPP IV activity was determined by the cleavage rate of 7-amino 4-methylcoumarin (AMC) from the substrate H-Gly-Pro-AMC. […] Fluorescence was measured using Spectra Max Gemini XS (Molecular Devices, USA) at an excitation filter of 360 nm and emission filter of 460 nm. Test compounds dissolved in DMSO were diluted with assay buffer at different concentrations and tested in duplicates. Percentage inhibition was calculated with respect to total activity. IC50 value was calculated using Prism Software.
MEASURED_ATTRIBUTE: IC50 (nM)
Write the answer as a number in nM, unit excluded.

COMPOUND	IC50, nM
CC1(C)[C@@H](CNS(=O)(=O)c2ccc(F)cc2)CC[C@@]1(C)NCC(=O)N1C[C@@H](F)C[C@H]1C#N [Example 19]	305

Q: Look up and report IC50, with human recombinant Dipeptidyl peptidase IV enzyme (hrDPP IV) (Homo sapiens, UniProt P27487) as system, for CC1(C)[C@@H](Cn2cnnn2)CC[C@@]1(C)NCC(=O)N1C[C@@H](F)C[C@H]1C#N [Example 31, methanesulfonate]
Ans: 264

Q: Look up and report IC50, with human recombinant Dipeptidyl peptidase IV enzyme (hrDPP IV) (Homo sapiens, UniProt P27487) as system, for CC1(C)[C@@H](NCC(=O)N2C[C@@H](F)C[C@H]2C#N)CC[C@@]1(C)c1nc(-c2cccnc2)no1 [Example 68]
Ans: 40.2

Q: Look up and report IC50, with human recombinant Dipeptidyl peptidase IV enzyme (hrDPP IV) (Homo sapiens, UniProt P27487) as system, for CC1(C)[C@@H](Cn2cncn2)CC[C@@]1(C)NCC(=O)N1CCC[C@H]1C#N [Example 8]
Ans: 1170

Q: Look up and report IC50, with human recombinant Dipeptidyl peptidase IV enzyme (hrDPP IV) (Homo sapiens, UniProt P27487) as system, for Cc1noc([C@@H]2CC[C@](C)(NCC(=O)N3C[C@@H](F)C[C@H]3C#N)C2(C)C)n1 [Example 51]
Ans: 91.4
